Hello, the source for this data is patent US7109193B2, in case you need it.

- MEASURED TARGET: human vasopressin V1a receptor subtype (Homo sapiens)
- Construct: host or cells: CHO cells (pZeoSV vector for the Thibonnier line)
- Sequence (P37288 whole entry): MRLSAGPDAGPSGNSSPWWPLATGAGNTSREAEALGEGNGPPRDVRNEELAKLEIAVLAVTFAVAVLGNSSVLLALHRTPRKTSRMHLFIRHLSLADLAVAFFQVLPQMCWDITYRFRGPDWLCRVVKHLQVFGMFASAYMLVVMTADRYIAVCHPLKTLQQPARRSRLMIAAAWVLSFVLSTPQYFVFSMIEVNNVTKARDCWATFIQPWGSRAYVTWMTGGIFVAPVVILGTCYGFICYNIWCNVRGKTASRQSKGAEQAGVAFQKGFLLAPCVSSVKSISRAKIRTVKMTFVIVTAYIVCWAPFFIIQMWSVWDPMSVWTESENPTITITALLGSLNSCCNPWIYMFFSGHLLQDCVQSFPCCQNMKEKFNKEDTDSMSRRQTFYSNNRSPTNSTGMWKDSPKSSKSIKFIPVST
- ASSAY EXPLANATION: Vasopressin binding in Chinese Hamster Ovary cell membranes expressing human vasopressin V1a subtype receptors
- ASSAY CONDITIONS: 100 nM, CHO cell membranes, [3H]Manning ligand, values without parentheses
EXPERIMENTAL READOUT: inhibition at 0.1 µM (%)
Please reply with the bare figure in % and do not write the unit itself.

These recorded examples may help you get a feel for the data.
{"columns": ["COMPOUND", "QUANTITY UNIT", "RESULT VALUE"],
 "data": [
  ["CN1CCCC1CCNC(=O)c1ccc2n1Cc1ccccc1N(C(=O)c1ccc(-c3cccc4ccccc34)cc1Cl)C2 (stereo not shown)", "%", 0],
  ["Cc1cc(C(=O)N2Cc3ccc(C(=O)N4CCN(C(C)C)CC4)n3Cc3ccccc32)ccc1-c1ccccc1C(F)(F)F", "%", 1],
  ["COc1cc(C(=O)N2Cc3ccc(C(=O)N4CCN(CCCN(C)C)CC4)n3Cc3ccccc32)ccc1-c1cccc2ccccc12", "%", 16]
]}

We next turn to a different compound, shown below.
Please report the recorded inhibition at 0.1 µM for COc1cccc(-c2ccc(C(=O)N3Cc4ccc(C(=O)N5CCN(C(C)C)CC5)n4Cc4ccccc43)cc2OC)c1 .
33

###

Reported inhibition at 0.1 µM values are given for each entry in this list.
- MEASURED TARGET: human oxytocin receptor (Homo sapiens, UniProt P30559)
- Construct: host or cells: CHO cells (pcDNA3.1 vector)
- Sequence (P30559 whole entry): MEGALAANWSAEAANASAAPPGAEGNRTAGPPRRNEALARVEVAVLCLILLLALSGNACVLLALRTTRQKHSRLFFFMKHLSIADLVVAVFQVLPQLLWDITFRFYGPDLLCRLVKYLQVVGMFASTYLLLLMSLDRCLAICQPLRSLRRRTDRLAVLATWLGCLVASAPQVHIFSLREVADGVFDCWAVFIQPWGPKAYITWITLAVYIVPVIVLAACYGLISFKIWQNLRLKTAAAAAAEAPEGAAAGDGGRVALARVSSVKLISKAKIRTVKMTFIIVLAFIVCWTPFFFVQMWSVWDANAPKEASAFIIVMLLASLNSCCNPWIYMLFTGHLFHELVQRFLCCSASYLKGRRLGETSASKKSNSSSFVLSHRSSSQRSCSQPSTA
- ASSAY EXPLANATION: Oxytocin binding in Chinese Hamster Ovary cell membranes expressing human oxytocin receptors
- ASSAY CONDITIONS: 100 nM, CHO cell membranes, [3H]oxytocin, values without parentheses, read-out: OT % inhibition @ 100% nM
- Protocol: Oxytocin Binding in Chinese Hamster Ovary Cell Membranes Expressing Human Oxytocin Receptors The trypsin is removed by aspiration and the cells dislodged by tapping. Cell Culture medium (e.g. 30 mL for 1:30 split) is immediately added and mixed well to inactivate trypsin. […] The filter paper is thoroughly dried (7–12 min. in a microwave oven) and impregnated with MeltiLex B/H melt-on scintillation wax sheets and the radioactivity counted in a betaplate scintillation counter. […]
Output should be the measured figure followed by the unit it is expressed in.

{"columns": ["MOLECULE", "EXPERIMENTAL READOUT", "RESULT VALUE"],
 "data": [
  ["COc1cccc(-c2cc(OC)c(C(=O)N3Cc4ccc(C(=O)NCCN5CCCCC5)n4Cc4ccccc43)cc2Cl)c1 [Example 156]", "inhibition at 0.1 µM", "30%"],
  ["CN(C)CCN1CCN(C(=O)c2ccc3n2Cc2ccccc2N(C(=O)c2ccc(-c4cccc5ccccc45)cc2Cl)C3)CC1 [Example 205]", "inhibition at 0.1 µM", "24%"],
  ["COc1cc(C(=O)N2Cc3ccc(C(=O)N4CCC(N5CCCC5)CC4)n3Cc3ccccc32)ccc1-c1ccccc1C [Example 142]", "inhibition at 0.1 µM", "83%"]
]}

Write down the reported inhibition at 0.1 µM of COc1ccccc1-c1ccc(C(=O)N2Cc3ccc(C(=O)N(C)C4CCN(C)CC4)n3Cc3ccccc32)cc1OC [Example 183] , test system: human oxytocin receptor (Homo sapiens, UniProt P30559).
97%

Given the entry C=CCN1CCN(C(=O)c2ccc3n2Cc2ccccc2N(C(=O)c2ccc(-c4cccc(OC)c4)c(C)c2)C3)CC1 [Example 223] , what inhibition at 0.1 µM was observed with human oxytocin receptor (Homo sapiens, UniProt P30559)?
71%

Item CC(C)N1CCN(C(=O)c2ccc3n2Cc2ccccc2N(C(=O)c2ccc(-c4cccc5ccccc45)cc2Cl)C3)CC1 [Example 243] with human oxytocin receptor (Homo sapiens, UniProt P30559) - inhibition at 0.1 µM?
17%

Form: Entry = Cc1ccccc1-c1ccc(C(=O)N2Cc3ccc(C(=O)N(C)CCCN(C)C)n3Cc3ccccc32)cc1 [Example 104] | System = human oxytocin receptor (Homo sapiens, UniProt P30559) | inhibition at 0.1 µM = ____
96%
